Data origin, for the record: patent US12643910B2

Target: ENPP3 (Homo sapiens)
Sequence (O14638 1-875): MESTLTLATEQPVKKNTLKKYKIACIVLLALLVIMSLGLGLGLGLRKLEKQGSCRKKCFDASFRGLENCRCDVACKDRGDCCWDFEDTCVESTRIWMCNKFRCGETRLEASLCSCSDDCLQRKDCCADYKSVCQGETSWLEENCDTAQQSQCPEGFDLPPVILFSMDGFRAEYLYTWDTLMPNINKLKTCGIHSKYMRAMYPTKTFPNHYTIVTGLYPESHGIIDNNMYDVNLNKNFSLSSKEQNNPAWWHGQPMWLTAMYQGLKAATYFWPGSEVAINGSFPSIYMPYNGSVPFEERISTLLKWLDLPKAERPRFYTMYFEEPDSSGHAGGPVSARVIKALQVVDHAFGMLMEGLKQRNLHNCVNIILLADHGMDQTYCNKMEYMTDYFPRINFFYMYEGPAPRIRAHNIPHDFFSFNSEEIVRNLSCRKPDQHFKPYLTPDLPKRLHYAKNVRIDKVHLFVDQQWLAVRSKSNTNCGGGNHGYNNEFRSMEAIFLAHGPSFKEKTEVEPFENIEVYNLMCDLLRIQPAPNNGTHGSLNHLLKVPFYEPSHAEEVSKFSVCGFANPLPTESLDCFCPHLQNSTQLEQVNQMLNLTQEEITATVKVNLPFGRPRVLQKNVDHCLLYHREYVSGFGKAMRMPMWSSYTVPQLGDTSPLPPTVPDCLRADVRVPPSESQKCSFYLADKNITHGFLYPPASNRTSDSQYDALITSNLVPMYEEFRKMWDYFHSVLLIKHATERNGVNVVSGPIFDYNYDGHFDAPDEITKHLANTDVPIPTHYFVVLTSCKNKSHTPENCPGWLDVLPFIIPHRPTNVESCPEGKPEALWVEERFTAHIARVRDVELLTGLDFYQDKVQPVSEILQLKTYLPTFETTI
Assay: ENPP3 Km ATP assay
Type: biochemical
Conditions: ATP at Km
Listed molecules paired with reported IC50
ENDPOINT: IC50

chemical_smiles=Cn1ncc2c(NCc3ccc(S(N)(=O)=O)cn3)ncnc21 endpoint=IC50 meas_value="> 20 µM"
chemical_smiles=Cc1cnccc1CCCNC1CCN(c2ncnc3c(C)csc23)CC1 endpoint=IC50 meas_value="> 20 µM"
chemical_smiles=CCn1ncc2c(NCc3ccc(S(N)(=O)=O)cc3)nc(OCCC(C)C)nc21 endpoint=IC50 meas_value="0.1 to 1 µM"
chemical_smiles=CN(Cc1ccc(S(N)(=O)=O)cc1)c1ncnc2c1cnn2C endpoint=IC50 meas_value="0.1 to 1 µM"
chemical_smiles=Cc1csc2c(N3CCC(NCCCc4cccnc4)CC3)ncnc12 endpoint=IC50 meas_value="> 20 µM"
chemical_smiles=Cc1csc2c(N3CCC(NC(=O)CCc4ccc(F)cc4)CC3)ncnc12 endpoint=IC50 meas_value="> 20 µM"
chemical_smiles=O=C(CCc1ccc(F)cc1)NC1CCN(c2ncnc3c(-c4ccccc4)csc23)CC1 endpoint=IC50 meas_value="> 20 µM"
chemical_smiles=Cn1ncc2c(NCc3ccc(S(N)(=O)=O)cc3F)cc(Cl)nc21 endpoint=IC50 meas_value="< 0.1 µM"
chemical_smiles=Cn1ncc2c(NCc3ccc(S(N)(=O)=O)cc3)nncc21 endpoint=IC50 meas_value="> 20 µM"
chemical_smiles=CCN(CC)c1cc(NCc2ccc(S(N)(=O)=O)cc2)c2cnn(C)c2n1 endpoint=IC50 meas_value="1 to 20 µM"
chemical_smiles=Cc1ccc(CCCNC2CCN(c3ncnc4c(C)csc34)CC2)cc1 endpoint=IC50 meas_value="> 20 µM"
chemical_smiles=Cc1ccccc1CCCNC1CCN(c2ncnc3c(C)csc23)CC1 endpoint=IC50 meas_value="> 20 µM"
chemical_smiles=c1ccc(-c2csc3nc(-c4ccccn4)nc(NCc4ccncc4)c23)cc1 endpoint=IC50 meas_value="> 20 µM"
chemical_smiles=Cc1csc2c(N3CCC(NCCCc4cccc(Cl)c4)CC3)ncnc12 endpoint=IC50 meas_value="> 20 µM"
chemical_smiles=CCOc1nc(NCc2ccc(S(N)(=O)=O)cc2)c2c(Br)nn(C)c2n1 endpoint=IC50 meas_value="< 0.1 µM"
chemical_smiles=Cc1csc2c(N3CCC(NC(=O)/C=C/c4ccncc4Cl)CC3)ncnc12 endpoint=IC50 meas_value="> 20 µM"
chemical_smiles=Cc1nc(NCc2ccc(S(N)(=O)=O)cc2)c2c(Br)nn(C)c2n1 endpoint=IC50 meas_value="< 0.1 µM"
chemical_smiles=CCNc1cc(NCc2ccc(S(N)(=O)=O)cc2)c2cnn(C)c2n1 endpoint=IC50 meas_value="1 to 20 µM"
chemical_smiles=NS(=O)(=O)c1ccc(COc2ncnc3scc(-c4ccccc4)c23)cc1 endpoint=IC50 meas_value="1 to 20 µM"
chemical_smiles=Cc1csc2c(N3CCC(NCCCc4ccnc(F)c4)CC3)ncnc12 endpoint=IC50 meas_value="> 20 µM"
chemical_smiles=Cc1ccc(CNc2nc(-c3ccccn3)nc3scc(-c4ccccc4)c23)o1 endpoint=IC50 meas_value="> 20 µM"
chemical_smiles=c1ccc(-c2csc3nc(-c4ccccn4)nc(NCc4cccnc4)c23)cc1 endpoint=IC50 meas_value="> 20 µM"
chemical_smiles=Cn1ncc2c(NCc3ccc(S(N)(=O)=O)c(F)c3)ncnc21 endpoint=IC50 meas_value="1 to 20 µM"
chemical_smiles=Fc1ccc(CCCNC2CCN(c3ncnc4ccsc34)CC2)cc1 endpoint=IC50 meas_value="> 20 µM"
chemical_smiles=Cn1ncc2c(NCc3ccc(S(N)(=O)=O)cc3)cc(N)nc21 endpoint=IC50 meas_value="0.1 to 1 µM"
chemical_smiles=Cc1csc2c(N3CCC(NC(=O)CCc4ccnc(F)c4)CC3)ncnc12 endpoint=IC50 meas_value="> 20 µM"
chemical_smiles=CCSc1nc(NCc2ccc(S(N)(=O)=O)cc2)c2cnn(C)c2n1 endpoint=IC50 meas_value="< 0.1 µM"
chemical_smiles=NS(=O)(=O)c1ccc(CNc2ncnc3scc(-c4ccccc4)c23)s1 endpoint=IC50 meas_value="> 20 µM"
chemical_smiles=NS(=O)(=O)c1ccc(CNc2cc(-c3ccccn3)nc3scc(-c4ccccc4)c23)cc1 endpoint=IC50 meas_value="1 to 20 µM"
chemical_smiles=Cn1ncc2c(N3CCC(NCCCc4ccncc4)CC3)nc(-c3ccccc3)nc21 endpoint=IC50 meas_value="> 20 µM"
chemical_smiles=Cc1csc2c(N3CCC(NCCCc4ccncc4Cl)CC3)ncnc12 endpoint=IC50 meas_value="> 20 µM"
chemical_smiles=CCCSc1nc(NCc2ccc(S(N)(=O)=O)cc2)c2cnn(C)c2n1 endpoint=IC50 meas_value="0.1 to 1 µM"
chemical_smiles=CN(c1ccccc1)c1nc(NCc2ccc(S(N)(=O)=O)cc2)c2cnn(C)c2n1 endpoint=IC50 meas_value="0.1 to 1 µM"
chemical_smiles=Cn1ncc2c(OCc3ccc(S(N)(=O)=O)cc3)ncnc21 endpoint=IC50 meas_value="1 to 20 µM"
chemical_smiles=Cn1ncc2c(N3CCC(NCCCc4ccncc4)CC3)ncnc21 endpoint=IC50 meas_value="> 20 µM"
chemical_smiles=N#Cc1ccc(CNc2nc(-c3ccccn3)nc3scc(-c4ccccc4)c23)cc1 endpoint=IC50 meas_value="> 20 µM"

###

Listed compounds paired with reported IC50
Target: UniProt:O14638
Experiment: ENPP3 Km ATP assay
Type: biochemical
Conditions: ATP at Km
ENDPOINT: IC50

compound="Fc1ccccc1CNc1nc(-c2ccccn2)nc2scc(-c3ccccc3)c12 [Example 1.8]" meas_value="> 20 µM"
compound="Cc1csc2c(N3CCC(NCCCc4cccc(F)c4)CC3)ncnc12 [Example 3.41]" meas_value="> 20 µM"
compound="Cc1cc(S(N)(=O)=O)ccc1CNc1nc(-c2ccccn2)nc2scc(-c3ccccc3)c12 [Example 1.15]" meas_value="0.1 to 1 µM"
compound="Cc1nn(C)c2ncnc(NCc3ccc(S(N)(=O)=O)cc3)c12 [Example 2.45]" meas_value="0.1 to 1 µM"
compound="Cn1ncc2c(NCc3ccc(S(N)(=O)=O)c(Cl)c3)ccnc21 [Example 2.68]" meas_value="1 to 20 µM"
compound="Cn1nc(Br)c2c(NCc3ccc(S(N)(=O)=O)cc3)nc(Cl)nc21 [Example 2.87]" meas_value="< 0.1 µM"
compound="CCn1ncc2c(NCc3ccc(S(N)(=O)=O)cc3)ccnc21 [Example 2.122]" meas_value="1 to 20 µM"
compound="Cn1ncc2c(NCc3ccc(S(N)(=O)=O)nc3)ncnc21 [Example 2.52]" meas_value="1 to 20 µM"
compound="NS(=O)(=O)c1ccc(CNc2nc(N3CCOCC3)nc3scc(-c4ccccc4)c23)cc1 [Example 1.38]" meas_value="< 0.1 µM"

###

Molecular target: human ENPP1 (Homo sapiens, UniProt P22413)
Construct: made in house
Sequence (P22413 1-925): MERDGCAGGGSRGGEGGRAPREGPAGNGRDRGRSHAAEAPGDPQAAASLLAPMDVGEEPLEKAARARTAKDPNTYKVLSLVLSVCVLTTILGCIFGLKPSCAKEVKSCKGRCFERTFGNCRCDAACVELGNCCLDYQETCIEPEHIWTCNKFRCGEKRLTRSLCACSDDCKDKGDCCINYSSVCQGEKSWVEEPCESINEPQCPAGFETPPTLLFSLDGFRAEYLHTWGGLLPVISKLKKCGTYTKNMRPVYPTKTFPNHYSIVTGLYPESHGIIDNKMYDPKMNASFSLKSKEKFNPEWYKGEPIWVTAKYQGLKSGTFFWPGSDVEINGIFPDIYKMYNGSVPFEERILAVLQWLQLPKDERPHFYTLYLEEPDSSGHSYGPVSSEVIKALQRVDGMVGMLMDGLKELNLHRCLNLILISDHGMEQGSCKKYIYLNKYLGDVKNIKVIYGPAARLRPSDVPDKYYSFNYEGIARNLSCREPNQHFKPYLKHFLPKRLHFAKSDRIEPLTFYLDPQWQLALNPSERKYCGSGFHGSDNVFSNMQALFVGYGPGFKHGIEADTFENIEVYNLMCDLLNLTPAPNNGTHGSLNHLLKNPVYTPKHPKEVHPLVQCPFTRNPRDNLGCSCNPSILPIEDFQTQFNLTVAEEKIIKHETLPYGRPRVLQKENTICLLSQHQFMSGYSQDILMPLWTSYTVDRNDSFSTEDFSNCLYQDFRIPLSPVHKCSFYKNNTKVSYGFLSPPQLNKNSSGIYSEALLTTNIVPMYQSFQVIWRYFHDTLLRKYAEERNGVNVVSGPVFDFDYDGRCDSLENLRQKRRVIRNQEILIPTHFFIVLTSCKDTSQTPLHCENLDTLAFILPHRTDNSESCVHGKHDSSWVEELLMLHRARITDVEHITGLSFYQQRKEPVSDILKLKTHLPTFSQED
Test: ENPP1 assay with ATP substrate (Transcreener AMP2/GMP2 TR-FRET)
Format: biochemical
Conditions: 1 hour at room temperature
Listed compounds paired with reported IC50
ENDPOINT: IC50

compound="Cc1nc(NCc2ccc(S(N)(=O)=O)cc2)c2c(-c3ccccc3)csc2n1 [Example 1.44]" target_desc="human ENPP1 (Homo sapiens, UniProt P22413)" endpoint=IC50 meas_value="< 0.1 µM"
compound="Cn1ncc2c(NCc3ccccn3)nc(-c3ccccn3)nc21 [Example 2.19]" target_desc="human ENPP1 (Homo sapiens, UniProt P22413)" endpoint=IC50 meas_value="> 20 µM"
compound="CN1CCC(n2ncc3c(NCc4ccc(S(N)(=O)=O)cc4)ncnc32)CC1 [Example 2.43]" target_desc="human ENPP1 (Homo sapiens, UniProt P22413)" endpoint=IC50 meas_value="> 20 µM"
compound="Cc1csc2nc(-c3ccccn3)nc(NCc3ccc(S(N)(=O)=O)s3)c12 [Example 1.37]" target_desc="human ENPP1 (Homo sapiens, UniProt P22413)" endpoint=IC50 meas_value="> 20 µM"
compound="Cc1csc2c(N3CCC(NCC4CC4c4ccncc4)CC3)nc(Cl)nc12 (stereo not drawn) [Example 3.80]" target_desc="human ENPP1 (Homo sapiens, UniProt P22413)" endpoint=IC50 meas_value="1 to 20 µM"
compound="Cc1nc(N2CCC(NCCCc3ccncc3)CC2)c2scc(C)c2n1 [Example 3.52]" target_desc="human ENPP1 (Homo sapiens, UniProt P22413)" endpoint=IC50 meas_value="> 20 µM"
compound="Cc1nc(NCc2ccc(S(N)(=O)=O)cc2)c2cnn(C)c2n1 [Example 2.26]" target_desc="human ENPP1 (Homo sapiens, UniProt P22413)" endpoint=IC50 meas_value="< 0.1 µM"
compound="Cc1csc2c(N3CCC(NCCCc4ccncc4)CC3)nc(Cl)nc12 [Example 3.65]" target_desc="human ENPP1 (Homo sapiens, UniProt P22413)" endpoint=IC50 meas_value="1 to 20 µM"
compound="Cc1ccccc1CCCNC1CCN(c2ncnc3c(C)csc23)CC1 [Example 3.16]" target_desc="human ENPP1 (Homo sapiens, UniProt P22413)" endpoint=IC50 meas_value="0.1 to 1 µM"
compound="CCc1nc(NCc2ccc(S(N)(=O)=O)cc2)c2cnn(C)c2n1 [Example 2.40]" target_desc="human ENPP1 (Homo sapiens, UniProt P22413)" endpoint=IC50 meas_value="< 0.1 µM"
compound="Cc1csc2c(N3CCC(NC(=O)CCc4cccc(Cl)c4)CC3)ncnc12 [Example 3.18]" target_desc="human ENPP1 (Homo sapiens, UniProt P22413)" endpoint=IC50 meas_value="> 20 µM"
compound="NS(=O)(=O)c1ccc(CNc2nc(NCc3ccccc3)nc3scc(-c4ccccc4)c23)cc1 [Example 1.41]" target_desc="human ENPP1 (Homo sapiens, UniProt P22413)" endpoint=IC50 meas_value="< 0.1 µM"
compound="NS(=O)(=O)c1ccc(COc2ncnc3scc(-c4ccccc4)c23)cc1 [Example 1.70]" target_desc="human ENPP1 (Homo sapiens, UniProt P22413)" endpoint=IC50 meas_value="0.1 to 1 µM"
compound="Cn1ncc2c(N3CCC(NCCCc4ccncc4)CC3)ncnc21 [Example 2.5]" target_desc="human ENPP1 (Homo sapiens, UniProt P22413)" endpoint=IC50 meas_value="> 20 µM"
compound="COc1ccc(CCCNC2CCN(c3ncnc4c(C)csc34)CC2)cc1 [Example 3.32]" target_desc="human ENPP1 (Homo sapiens, UniProt P22413)" endpoint=IC50 meas_value="0.1 to 1 µM"
compound="Cn1ncc2c(NCc3ccc(S(N)(=O)=O)c(C(F)(F)F)c3)ncnc21 [Example 2.41]" target_desc="human ENPP1 (Homo sapiens, UniProt P22413)" endpoint=IC50 meas_value="0.1 to 1 µM"
compound="CN(C)CCNc1nc(NCc2ccc(S(N)(=O)=O)cc2)c2c(-c3ccccc3)csc2n1 [Example 1.60]" target_desc="human ENPP1 (Homo sapiens, UniProt P22413)" endpoint=IC50 meas_value="< 0.1 µM"
compound="Cc1csc2c(N3CCC(NC(=O)CCc4ccncc4F)CC3)ncnc12 [Example 3.38]" target_desc="human ENPP1 (Homo sapiens, UniProt P22413)" endpoint=IC50 meas_value="> 20 µM"
